- System: FGFR1;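 also: KINOMEscan kinase panel screen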
- assay-context: concentration: 1 μM,replicates: in singlicate; n = 1
Mark each entry 1.0 if its %Inh sits below 10%, and 0.0 for all others.

[
  {
    "compound": "Cl.Cl.Nc1nc(-c2ccc3c(N)n[nH]c3c2)cc(N2CCCC(NC(=O)c3ccccc3)C2)n1 (stereo not drawn)",
    "measured-on": "FGFR1",
    "group": 1.0
  },
  {
    "compound": "Cc1cc2cn[nH]c2cc1-c1cccc2c(N)c(C(N)=O)nnc12",
    "measured-on": "FGFR1",
    "group": 0.0
  },
  {
    "compound": "Nc1nc(Nc2ccccc2)cc(-c2ccc3c(N)n[nH]c3c2)n1",
    "measured-on": "FGFR1",
    "group": 0.0
  },
  {
    "compound": "Cc1ccc2c(-c3ccncc3)c(-c3ccc(F)cc3)nn2c1.Cl",
    "measured-on": "FGFR1",
    "group": 0.0
  },
  {
    "compound": "CN(C)CCOc1ccc(-c2cc(-c3c[nH]nc3-c3ccccn3)ccn2)cc1",
    "measured-on": "FGFR1",
    "group": 0.0
  },
  {
    "compound": "NC(=O)c1cc(-c2ccccc2)cc2c(C3CCNCC3)c[nH]c12",
    "measured-on": "FGFR1",
    "group": 0.0
  },
  {
    "compound": "O=C(NCCNc1ccnc(NCc2ccc(F)cc2)n1)c1cc2ccccc2s1",
    "measured-on": "FGFR1",
    "group": 1.0
  },
  {
    "compound": "Cc1occc1-c1nc(N)c(OC[C@@H](N)Cc2c[nH]c3ccccc23)cc1-c1cc2c(C)n[nH]c2cn1",
    "measured-on": "FGFR1",
    "group": 0.0
  },
  {
    "compound": "C[C@H]1Oc2cc(cnc2N)-c2c(nn(C)c2C#N)CN(C)C(=O)c2ccc(F)cc21",
    "measured-on": "FGFR1",
    "group": 0.0
  },
  {
    "compound": "Cc1n[nH]c2ccc(-c3cc(OC[C@@H](N)Cc4ccccc4)cnc3-c3ccoc3)cc12.O=C(O)C(F)(F)F.O=C(O)C(F)(F)F",
    "measured-on": "FGFR1",
    "group": 1.0
  },
  {
    "compound": "C[C@@H](Oc1cc(-c2cnn(C3CCNCC3)c2)cnc1N)c1c(Cl)ccc(F)c1Cl",
    "measured-on": "FGFR1",
    "group": 0.0
  },
  {
    "compound": "Cc1cc(C(=O)Nc2ccc(Oc3ccc4nc(NC(=O)C5CC5)cn4n3)cc2)nn1-c1ccccc1",
    "measured-on": "FGFR1",
    "group": 0.0
  },
  {
    "compound": "Cl.Cl.NC[C@H](CC1CCCCC1)NC(=O)c1cc(Br)c(-c2ccnc3[nH]ccc23)s1",
    "measured-on": "FGFR1",
    "group": 0.0
  },
  {
    "compound": "CCN(CC)CCCCNc1ncc2cc(-c3c(Cl)cccc3Cl)c(NC(=O)NC(C)(C)C)nc2n1",
    "measured-on": "FGFR1",
    "group": 0.0
  }
]

Where do these numbers come from? They come from paper PMC5540273.
